Tested on: HCT-116 colon
PROCEDURE_SUMMARY: NCI-60 one-dose screen, 48 h (100 = growth as untreated, 0 = no growth, -100 = all killed)
EXPERIMENTAL_PARAMETERS: 10 µM unless noted
Compounds without any hit were thinned out: in the full panel of roughly 83,000, 20% have a hit. Activity calls are given as the source filed them. The calls were made as follows: active = growth percent below 10; inactive = the rest.
growth values for the compounds below.

Below are worked cases with known answers.
COc1ccc2c(c1)oc1c(C)c3c(c(C)c12)C(=O)N(Nc1ccccc1)C3=O = 96% (inactive)
O=C(N/N=C/c1ccc(O)cc1O)c1cccc(Nc2ccnc(C(F)(F)F)c2)c1 = 12.3% (inactive)
CCOC(=O)CCCn1c(-c2ccccc2)cc(-c2ccccc2)c(C#N)c1=O = 75.5% (inactive)
Nc1n[nH]c2cccc(C#Cc3cccc(NC(=O)c4ccc(N5CCOCC5)c(C(F)(F)F)c4)c3)c12 = 2.84% (active)
CCCCCCCCCCCCC[C@H](O)C[C@H](O)[C@H](C)N = 83.1% [1.25 µM] (inactive)

-- ask Bench note: what growth did COc1ccc(/C=C/C(=O)c2cc3c(N)c(C(=O)Nc4ccccc4)sc3nc2C)cc1 show?
-- reply 8.12% (active)

-- ask # repeat for CCCCC#Cc1c(/C=C(\CCCC)SCC)n(C)c(=O)[nH]c1=O
-- reply 88.3% (inactive)

-- ask # repeat for COC(=O)c1nc(-c2ccc(C)cc2)oc1S(=O)(=O)c1ccc(Cl)cc1
-- reply 77.7% (inactive)

-- ask # repeat for COc1cc(-c2nc3occn3c2-c2ccnc(NCCCNS(=O)(=O)c3ccc(O)cc3)n2)ccc1F
-- reply 86.1% (inactive)

-- ask # repeat for CC(=NCc1ccccc1)c1ccc(O)cc1O
-- reply 104% (inactive)
